Origin of the recorded values: PubChem BioAssay

# assay-comment: inhibition of 3D7 malaria parasite growth – strain 3D7 (AID 2306);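 also: 0% = DMSO wells and 100% = chloroquine plus artemisinin control wells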
# reported-conditions: P. falciparum 3D7 erythrocytic growth, LDH absorbance, 72 h; at 2 µM; hits give high values
parameter-measured: growth inhibition (%)
Give the number; % is assumed, so skip it.

Req: # growth inhibition lookup, item Cc1ccc(NC(=O)c2cccc(CN3CCCN(Cc4cccc(O)c4)CC3)c2)cc1C
Resp: 95

Req: GET /values?readout=growth inhibition&item= COc1ccccc1NC(=O)Nc1cccc(-c2cccc(-c3nc4ccc(C(F)(F)F)cc4[nH]3)c2)c1
Resp: 101

Req: Entry under review: CC(CN1CCN(C)CC1)C(=O)Nc1cccc(-c2ccc(-c3nc4ccc(F)cc4[nH]3)cc2)c1 (stereo unspecified) . Reported growth inhibition?
Resp: 101

Req: Which growth inhibition value is on record for Cn1cc(C2CCN(CCCCNC(=O)c3ccc(-c4ccc(C(F)(F)F)cc4)c(CO)c3)CC2)c2ccccc21 ?
Resp: 88

Req: Value lookup for growth inhibition; key = CCc1nc2ccc(C(=O)OC)nc2n1Cc1ccc2oc(-c3ccccc3N)c(Br)c2c1
Resp: 93

Req: So what does the record say about growth inhibition for O=C(Cc1ccc(-n2cnnn2)cc1)N(Cc1cncn1Cc1cccc(C(F)(F)F)c1)CC1CC1 ?
Resp: 86

Req: // growth inhibition lookup, key: CC(C)C[C@@H](CNC[C@H](CC(C)C)NC(=O)OC(C)(C)C)NC(=O)OC(C)(C)C
Resp: 88

Req: Which growth inhibition value is on record for COc1ccc(CNCc2cccc(-c3ccc(-c4nc5ccc(C(F)(F)F)cc5[nH]4)cc3)c2)cc1 ?
Resp: 102

Req: # get_value(readout='growth inhibition', item= c1ccc(Oc2ccc(Nc3ccnc(Nc4cccc(CNCCCN5CCOCC5)c4)n3)cc2)cc1 )
Resp: 100

Req: Consider the molecule Cc1[nH]c(C)c(-c2ccc(OCCCCSc3ccncc3)cc2)c(=O)c1Br and give its measured growth inhibition.
Resp: 97

Req: Quick one: growth inhibition for COc1ccc(C=Cc2cc(N)c3ccccc3n2)cc1 ?
Resp: 93

Req: Endpoint output: growth inhibition of Cc1cc(NN=Cc2ccc(F)cc2)c2cc(F)ccc2n1 . Value?
Resp: 101

Req: Could you share which growth inhibition value was measured for Cc1ccc(NC(=O)NC2CCN(CCCCCNC(=O)/C=C/c3ccc(Cl)c(Cl)c3)CC2)cc1C ?
Resp: 101

Req: Query (molecule): CCC(CC)C(CC(=O)NC(C)(C)CCc1ccccc1OC)Nc1ccc(C#N)c2ccccc12 (stereo unspecified) ; field requested: growth inhibition
Resp: 93

Req: Give its growth inhibition value. Item: CC(C)N1CCC(NCc2ccc(-c3ccc(Cl)cc3)cc2)CC1
Resp: 99

Req: Could you tell me which growth inhibition is on file for CN(C)c1ccc(-c2ccc(C(=O)NC3CCN(Cc4ccc5c(c4)OCCO5)CC3)s2)cc1 ?
Resp: 100

Req: Could you share which growth inhibition value was measured for c1ccc2c(Nc3ccc(OCCOCCOc4ccc(Nc5c6ccccc6nc6ccccc56)cc4)cc3)c3ccccc3nc2c1 ?
Resp: 101

Req: growth inhibition lookup needed for CCCN(CC)CCOC(=O)c1ccccc1 , thanks.
Resp: 99

Req: Name the recorded growth inhibition for Nc1cccc(CNCc2ccc(-c3cccc(-c4nc5ccc(F)cc5[nH]4)c3)cc2)c1 .
Resp: 101

Req: I would be grateful if you could share the reported growth inhibition for Cc1ccccc1C1CCN(c2ccc(C(=O)NC3CC3)cn2)CC1 .
Resp: 95

Req: Fill in the blank: the reported growth inhibition of Cc1cc(N2CCN(C)CC2)nc2ccc(NC(=O)Cc3cccc(C(F)(F)F)c3)cc12 is ____.
Resp: 99

###

Could you please report measured inhibition for the items listed next?
# assay-comment: HepG2 cytotoxicity, primary screen, cytotoxicity control for P. falciparum antimalarial project, cell-based, ATP luminescence (AID 2303);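 also: 0% = DMSO wells and 100% = digitonin-killed cells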
# reported-conditions: HepG2 viability, 24-48 h, at 10 µM, hits give high values
Active and inactive are the calls of the source.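 The calls were made as follows: active = inhibition above 50%; inactive = the rest.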

Req: Using the record for FC(F)(F)c1cnc(Sc2nnc(-c3ccco3)o2)c(Cl)c1 , report its inhibition.
Resp: -1% (inactive)

Req: Fill in: inhibition of CC1=C(C(=O)Nc2cc3cn[nH]c3cc2F)C(c2cccc(NS(C)(=O)=O)c2)CC(=O)N1 (stereo not given) is ___
Resp: -10% (inactive)

Req: Item under review: COc1ccc2cc(-c3nc(-c4c(Cl)cccc4Cl)[nH]c3-c3ccnc(NCCCN4CCN(C)CC4)c3)ccc2c1 . Reported inhibition?
Resp: 10% (inactive)

Req: Given the molecule O=C(Nc1ccc(Cl)cc1)N(CC1C[C@H]2CC[C@@H](C1)N2Cc1ccc(C(F)(F)F)cc1)c1ccc(N2CCOCC2)c(F)c1 (stereo not given in full) , what is its reported inhibition?
Resp: 31% (inactive)

Req: Looking for the measured inhibition of N#Cc1c(N)nc(SCC(=O)Nc2cc(C(F)(F)F)ccc2Cl)c(C#N)c1-c1cccs1 , can you help?
Resp: 23% (inactive)

Req: Which inhibition is reported for this molecule? O=C(Nc1cccc(Cl)c1)OC1CCCN2CCCCC12 (stereo not given)
Resp: 6% (inactive)

Req: Dear colleague, I am looking for the recorded inhibition of the following molecule: CC(C)CCN1CCC(Oc2ccc(NC(=O)c3ccc(F)cc3)cc2Cl)CC1
Resp: 33% (inactive)

Req: What does the record list as inhibition for CN(C)CCC=C1c2ccccc2Sc2c(O)cc(Cl)cc21 ?
Resp: 8% (inactive)

Req: Bench note: what inhibition did Cc1cc(N[C@@H](Cc2ccccc2)C(=O)NC2CCCC2)nc(NCCOc2ccccc2)n1 show?
Resp: 40% (inactive)

Req: Name the recorded inhibition for CCOc1ccc2c(NN=Cc3ccc(OC)c(OC)c3)cc(C)nc2c1 .
Resp: 22% (inactive)

Req: I am curious: what inhibition value has been reported for COc1ccc2ncc(Cl)c(CCN3CCC(NCc4ccc5c(n4)NC(=O)CO5)CC3)c2c1 ?
Resp: 25% (inactive)

Req: Value lookup for inhibition; key = c1csc(-c2ccc3c(c2)CC(NCc2c[nH]c4cnccc24)C3)c1 (stereo not given)
Resp: 9% (inactive)

Req: # inhibition lookup, item O=C(N[C@H]1CCN(Cc2ccc(OCCCN3CCCCC3)cc2)C1)c1ccc(Cl)c(Cl)c1
Resp: 27% (inactive)

Req: Looking for the measured inhibition of Cn1cnc2c(Nc3ccncc3)nc(-c3ccc4ccccc4c3)nc21 , can you help?
Resp: 55% (active)

Req: Need inhibition, item COC(=O)c1cc(C(=O)CN(Cc2ccccc2)C(C)C)ccc1O
Resp: 7% (inactive)

###

# assay-comment: HepG2 cytotoxicity, primary screen, cytotoxicity control for P. falciparum antimalarial project, cell-based, ATP luminescence (AID 2303);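 also: 0% = DMSO wells and 100% = digitonin-killed cells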
# reported-conditions: HepG2 viability, 24-48 h, at 10 µM, hits give high values
Simple rule here: inhibition less than 20% is yes, otherwise no.

Req: A record lists CCOc1cccc(C(=O)Nc2cccc(CN3CCCN(Cc4cccc(O)c4)CC3)c2)c1 . Is its inhibition below 20%?
Resp: yes

Req: Could you please tell me whether inhibition recorded for Cc1ccc2[nH]ncc2c1N(CC1CCCCC1)c1ccnc(Nc2ccc(OCC(O)CN3CC=CCC3)cc2)n1 (stereo unspecified) is less than 20%?
Resp: no

Req: Does the reported inhibition of the following molecule sit strictly below 20%? CN(CCCCNC(=O)c1ccc(-c2ccccc2)cc1)C1CCc2c(O)cccc2C1 (stereo unspecified)
Resp: no

Req: Please determine if CCNc1nc(OCC(F)(F)F)nc(N(c2ccccc2)c2ccccc2)n1 is below 20% in terms of inhibition.
Resp: yes

Req: State whether 20% exceeds inhibition recorded for COC(=O)c1ccc(NC(=O)c2ccc(CCN3CCC(c4nc(COCC(F)(F)F)c(-c5ccc(F)cc5)o4)CC3)cc2)cc1 .
Resp: no

Req: Is inhibition of COc1ccc(N2C(=O)C3C(C2=O)C2(C)c4ccccc4C3(C)c3ccccc32)c([N+](=O)[O-])c1 (stereo unspecified) strictly below 20%?
Resp: yes

Req: Say whether its inhibition is strictly beneath 20%. Entry: Nc1ccc(-c2ccc3ccnc(N)c3c2)cn1
Resp: no

Req: Just wondering, is inhibition of O=C(NCCCCN1CCC(c2ccc3c(c2OCCCO)CCCC3)CC1)c1ccc(-c2ccc(C(F)(F)F)cc2)cc1 below 20%?
Resp: no

Req: Field: below-cutoff. Rule: recorded inhibition strictly less than 20%. Subject: COc1cc2sc(=NC(=O)c3cccc([N+](=O)[O-])c3)n(C)c2cc1OC
Resp: yes

Req: Does the reported inhibition of Cc1ccc(F)cc1S(=O)(=O)Nc1cccc(CCN2CCC(N3CCCCC3)CC2)c1 stay below 20%?
Resp: yes

Req: # TODO verify inhibition < 20% strictly for this molecule: COc1ccc2nccc([C@@H](O)CN3CCC(NC(=O)/C=C/c4ccc5ccccc5n4)CC3)c2c1
Resp: yes

Req: Answer whether the molecule O=C(Nc1cccc(-c2cccc(-c3nc4ccc(C(F)(F)F)cc4[nH]3)c2)c1)c1cccnc1Cl has inhibition strictly less than 20%
Resp: no

Req: Item Oc1ccccc1N1CCN(c2ccc(-c3nc4ccccc4[nH]3)cn2)CC1 : inhibition beneath 20%, strictly?
Resp: yes

Req: Strictly below 20%: is that where inhibition of O=C(Nc1ccc(C(F)(F)F)cc1)c1cccc(S(=O)(=O)NC2CCN(CC3CCCCC3)C2)c1 (stereo unspecified) sits?
Resp: no

Req: Lab note: confirm whether the reported inhibition for this molecule is below 20%, equality not counting. molecule: CCN(CCCN1CCCCC1)c1cc(C)nc(Nc2cccc3c2CCCC3)n1
Resp: no

Req: Given COc1cc(C2CCN(CCCCNC(=O)c3ccc(NC(=O)c4cc(C(F)(F)F)cc(C(F)(F)F)c4)cc3)CC2)ccc1OC(C)C , is recorded inhibition strictly lower than 20%?
Resp: no

Req: Field: below-cutoff. Rule: recorded inhibition strictly less than 20%. Subject: S=C(NN=Cc1ccccn1)Nc1ccc(Cl)c(Cl)c1
Resp: no

Req: Strictly below 20%: is that where inhibition of FC(F)(F)c1cccc(Nc2nc3ccccc3nc2Nc2cccc(C(F)(F)F)c2)c1 sits?
Resp: no

Req: State whether 20% exceeds inhibition recorded for COC(=O)c1cccc(NC(=O)NC2CCN(c3ccnc(Nc4ccc(OC)cc4)n3)C2)c1 (stereo unspecified) .
Resp: yes
